The entries below come with measured Cyprid Settlement (ED50) values attached.
test system: cyprid stage larvae; assay type: in vivo, acorn barnacle Balanus amphritrite Darwin; conditions: dose which prevents settlement of 50 percent of cyprid stage larvae (EC50); three-day old cyprids, 100 kDa-filtered seawater (approx. 35 ppt), 28° C., approx. 15 h light and 9 h darkness
Endpoint Name: Cyprid Settlement (ED50) (ng/L)

# Compound, Endpoint Name, Unit Of Measurement, Numeric Value
data = [
    ("C[C@]12CC[C@H](O)C[C@H]1CC[C@@H]1[C@@H]2CC[C@]2(C)[C@@H](c3ccc(=O)oc3)CC[C@]12O [Bufalin, 3,14-dihydroxybufa-20,22 dienolide]", "Cyprid Settlement (ED50)", "ng/L", 19),
    ("CC(=O)O[C@H]1[C@H]2O[C@]23[C@@H]2CC[C@@H]4C[C@@H](O)CC[C@]4(C)[C@H]2CC[C@]3(C)[C@H]1c1ccc(=O)oc1", "Cyprid Settlement (ED50)", "ng/L", 162),
]

----------
System: nauplius stage larvae
Experiment: Toxicity Assay for Nauplius Larvae (naupliar toxicity)
Details: lethal dose killing 50 percent of naupliar stage larvae; 100 kDa-filtered seawater, 28° C., approx. 15 h light and 9 h darkness; 1440 min
Protocol: Adult individuals of the acorn barnacle Balanus amphritrite Darwin were collected from the Duke University Marine Laboratory seawall in Beaufort, N.C. […] After incubation, the dishes were examined under a dissecting microscope to determine whether the larvae were alive or dead. […] The number of dead and living larvae was counted and recorded. […]

# Molecule, Naupliar Toxicity (LD50)
rows = [
    ("CCC[CH2][Sn]([Cl])([CH2]CCC)[CH2]CCC [TBT Chloride, tri-n-butyl tin chloride, reference compound]", "~3,400 ng/L"),
    ("C[C@]12CC[C@H](O)C[C@H]1CC[C@@H]1[C@@H]2C[C@@H](O)[C@]2(C)[C@@H](C3=CC(=O)OC3)CC[C@]12O [Digoxigenin, reference compound]", "3,720 ng/L"),
    ("C[C@H]1O[C@@H](O[C@H]2[C@@H](O)C[C@H](O[C@H]3[C@@H](O)C[C@H](O[C@H]4CC[C@@]5(C)[C@H](CC[C@@H]6[C@@H]5C[C@@H](O)[C@]5(C)[C@@H](C7=CC(=O)OC7)CC[C@]65O)C4)O[C@@H]3C)O[C@@H]2C)C[C@H](O)[C@@H]1O [Digoxin, reference compound]", "5,450 ng/L"),
]

----------
tested on: cyprid stage larvae; type: in vivo, acorn barnacle Balanus amphritrite Darwin; conditions: dose which prevents settlement of 50 percent of cyprid stage larvae (EC50); three-day old cyprids, 100 kDa-filtered seawater (approx. 35 ppt), 28° C., approx. 15 h light and 9 h darkness
Endpoint Name: Cyprid Settlement (ED50)

# Molecule, Endpoint Name, Result
rows = [
    ("C[C@H]1O[C@@H](O[C@H]2[C@@H](O)C[C@H](O[C@H]3[C@@H](O)C[C@H](O[C@H]4CC[C@@]5(C)[C@H](CC[C@@H]6[C@@H]5C[C@@H](O)[C@]5(C)[C@@H](C7=CC(=O)OC7)CC[C@]65O)C4)O[C@@H]3C)O[C@@H]2C)C[C@H](O)[C@@H]1O [Digoxin, reference compound]", "Cyprid Settlement (ED50)", "6,300 ng/L"),
    ("CC(=O)O[C@H]1[C@H]2O[C@]23[C@@H]2CC[C@]4(O)C[C@@H](O)CC[C@]4(C)[C@H]2CC[C@]3(C)[C@H]1c1ccc(=O)oc1", "Cyprid Settlement (ED50)", "2,600 ng/L"),
    ("C[C@]12CC[C@H](O)C[C@H]1CC[C@@H]1[C@@H]2C[C@@H](O)[C@]2(C)[C@@H](C3=CC(=O)OC3)CC[C@]12O [Digoxigenin, reference compound]", "Cyprid Settlement (ED50)", "> 50,000 ng/L"),
]
